melting point by entry:

Past entries and their recorded results:
O=c1oc2c3ccccc3c(Cl)cc2c2occc12 [Compound 4d]
150 °C
O=c1oc2c(ccc3ccccc32)c2c1C(O)CO2 (stereo not shown) [Compound 3a]
203 to 205 °C
COc1cc2c3occ(C)c3c(=O)oc2c2ccccc12 [Compound 2e]
203 to 205 °C
COc1cc2c3occc3c(=O)oc2c2ccccc12 [Compound 4e]
194 to 195 °C
CCc1cccc2c1ccc1c3occc3c(=O)oc21 [Compound 4c]
173 to 174 °C

# melting point of Cc1coc2c1c(=O)oc1c3ccccc3c(Cl)cc21 [Compound 2d] = 220 to 221 °C

# melting point of Cc1cccc2c1ccc1c3occc3c(=O)oc21 [Compound 4b] = 220 to 222 °C

# melting point of O=c1oc2c(cc(Cl)c3ccccc32)c2c1C(O)CO2 (stereo not shown) [Compound 3d] = 150 °C

# melting point of O=c1oc2c3ccccc3ccc2c2occc12 [Compound 4a] = 198 to 200 °C

# melting point of Cc1coc2c1c(=O)oc1c3ccccc3ccc21 [Compound 2a] = 205 to 207 °C

# melting point of COc1cc2c3c(c(=O)oc2c2ccccc12)C(O)CO3 (stereo not shown) [Compound 3e] = 210 to 212 °C

# melting point of CCc1cccc2c1ccc1c3occ(C)c3c(=O)oc21 [Compound 2c] = 145 to 147 °C

# melting point of CCc1cccc2c1ccc1c3c(c(=O)oc12)C(O)CO3 (stereo not shown) [Compound 3c] = 163 to 165 °C
